Data provenance is patent US20240390508A1.

The binders listed here are annotated with their Kd.
assayed system: T1, human transferrin receptor (hTfR) (human, UniProt P02786 89-760, limits assumed)
T1 construct: 0.5 uM hTfR solution immobilised on a Ni-NTA chip with EDC/NHS; source and construct are not described; also called human TfR
T1 sequence (P02786 89-760 limits assumed): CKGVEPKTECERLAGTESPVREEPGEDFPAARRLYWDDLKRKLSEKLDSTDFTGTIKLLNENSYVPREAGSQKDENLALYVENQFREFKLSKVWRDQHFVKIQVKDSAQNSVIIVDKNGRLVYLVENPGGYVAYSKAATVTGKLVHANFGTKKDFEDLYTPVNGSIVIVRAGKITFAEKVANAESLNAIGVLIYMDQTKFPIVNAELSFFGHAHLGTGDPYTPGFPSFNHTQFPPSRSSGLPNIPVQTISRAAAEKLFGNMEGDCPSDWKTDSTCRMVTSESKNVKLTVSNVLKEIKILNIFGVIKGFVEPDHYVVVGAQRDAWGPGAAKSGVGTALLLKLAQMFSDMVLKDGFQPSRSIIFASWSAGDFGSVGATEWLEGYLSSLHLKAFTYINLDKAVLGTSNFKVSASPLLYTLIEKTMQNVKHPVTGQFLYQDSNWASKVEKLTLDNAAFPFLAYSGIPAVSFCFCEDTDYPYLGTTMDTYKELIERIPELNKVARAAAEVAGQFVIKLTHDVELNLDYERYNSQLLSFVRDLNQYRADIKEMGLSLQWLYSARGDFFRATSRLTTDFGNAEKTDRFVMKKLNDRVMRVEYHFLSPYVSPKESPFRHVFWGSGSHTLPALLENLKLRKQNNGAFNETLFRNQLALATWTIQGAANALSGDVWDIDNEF
measurement notes: SPR, hTfR immobilised on NTA chip, single cycle kinetics; A = KD less than 100 nM

AVFVWNYYIIRRYYC (MeF at 3, MeY at 14 (N-methyl); thioether ring from N-terminal chloroacetyl-Ala to Cys 15; C-terminal Gly-PEG12c-KN3-NH2, azide joined to BCN on the oligonucleotide, also called A1/C50) [peptide-HDO conjugate of Example 50 (first nucleic acid strand A1, second nucleic acid strand C50)] : < 100 nM
AVFVWNYYIIRRYYC (MeF at 3, MeY at 14 (N-methyl); thioether ring from N-terminal chloroacetyl-Ala to Cys 15; C-terminal Gly-KN3-NH2, azide joined to BCN on the oligonucleotide, also called A2/C17) [peptide-HDO conjugate of Example 22 (first nucleic acid strand A2, second nucleic acid strand C17)] : < 100 nM
AVFVWNYYIIRRYYC (MeF at 3, MeY at 14 (N-methyl); thioether ring from N-terminal chloroacetyl-Ala to Cys 15; C-terminal Gly-KN3-NH2, azide joined to BCN on the oligonucleotide, also called A1/C18) [peptide-HDO conjugate of Example 18 (first nucleic acid strand A1, second nucleic acid strand C18)] : < 100 nM
AVFVWNYYIIRRYYC (MeF at 3, MeY at 14 (N-methyl); thioether ring from N-terminal chloroacetyl-Ala to Cys 15; C-terminal Gly-KN3-NH2, azide joined to BCN on the oligonucleotide, also called A2/C28) [peptide-HDO conjugate of Example 36 (first nucleic acid strand A2, second nucleic acid strand C28)] : < 100 nM
AVFVWNYYIIRRYYC (MeF at 3, MeY at 14 (N-methyl); thioether ring from N-terminal chloroacetyl-Ala to Cys 15; C-terminal Gly-KN3-NH2, azide joined to BCN on the oligonucleotide, also called A1/C4) [peptide-HDO conjugate of Example 4 (first nucleic acid strand A1, second nucleic acid strand C4)] : < 100 nM

Please give the documented Kd of AVFVWNYYIIRRYYC (MeF at 3, MeY at 14 (N-methyl); thioether ring from N-terminal chloroacetyl-Ala to Cys 15; C-terminal Gly-KN3-NH2, azide joined to BCN on the oligonucleotide, also called A2/C4) [peptide-HDO conjugate of Example 14 (first nucleic acid strand A2, second nucleic acid strand C4)]
< 100 nM

Report Kd for AVFVWNYYIIRRYYC (MeF at 3, MeY at 14 (N-methyl); thioether ring from N-terminal chloroacetyl-Ala to Cys 15; C-terminal Gly-KN3-NH2, azide joined to BCN on the oligonucleotide, also called A1/C42) [peptide-HDO conjugate of Example 42 (first nucleic acid strand A1, second nucleic acid strand C42)]
< 100 nM

Please indicate Kd recorded for AVFVWNYYIIRRYYC (MeF at 3, MeY at 14 (N-methyl); thioether ring from N-terminal chloroacetyl-Ala to Cys 15; C-terminal Gly-KN3-NH2, azide joined to BCN on the oligonucleotide, also called A1/C28) [peptide-HDO conjugate of Example 28 (first nucleic acid strand A1, second nucleic acid strand C28)]
< 100 nM
